# assay.system: 5-HT1A receptor (Homo sapiens)
# Construct: host or cells: CHO-K1 (co-expressing Ga15)
# Sequence (P08908 whole entry): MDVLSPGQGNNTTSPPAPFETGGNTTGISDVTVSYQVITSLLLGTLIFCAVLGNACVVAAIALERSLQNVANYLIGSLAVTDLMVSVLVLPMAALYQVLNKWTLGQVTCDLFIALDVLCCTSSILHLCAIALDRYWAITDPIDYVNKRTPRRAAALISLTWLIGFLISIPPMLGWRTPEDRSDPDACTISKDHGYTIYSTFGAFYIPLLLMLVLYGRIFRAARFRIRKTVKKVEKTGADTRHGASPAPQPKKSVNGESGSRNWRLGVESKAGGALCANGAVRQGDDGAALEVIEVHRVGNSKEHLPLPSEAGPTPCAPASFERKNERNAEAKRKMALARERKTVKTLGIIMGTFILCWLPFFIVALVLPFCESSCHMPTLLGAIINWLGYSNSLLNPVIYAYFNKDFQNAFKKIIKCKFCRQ
# protocol: cAMP-Glo assay of 5-HT1A receptor modulation in CHO-K1/5-HT1A/Ga15 cells
# Format: cell-based
# measurement.conditions: +5-HT1A vs −5-HT1A cells, 4 mM forskolin, increasing ligand concentrations
quantity: 5-HT1A receptor modulation (change in % cAMP)

# smiles.notation, result
rows = [
    ("NCCc1c[nH]c2ccc(O)cc12", "reduction in cAMP levels"),
    ("CN(C)CCc1c[nH]c2cccc(O)c12", "reduction in cAMP levels"),
]

----------
# assay.system: AVPR1A (Homo sapiens)
# Sequence (P37288 whole entry): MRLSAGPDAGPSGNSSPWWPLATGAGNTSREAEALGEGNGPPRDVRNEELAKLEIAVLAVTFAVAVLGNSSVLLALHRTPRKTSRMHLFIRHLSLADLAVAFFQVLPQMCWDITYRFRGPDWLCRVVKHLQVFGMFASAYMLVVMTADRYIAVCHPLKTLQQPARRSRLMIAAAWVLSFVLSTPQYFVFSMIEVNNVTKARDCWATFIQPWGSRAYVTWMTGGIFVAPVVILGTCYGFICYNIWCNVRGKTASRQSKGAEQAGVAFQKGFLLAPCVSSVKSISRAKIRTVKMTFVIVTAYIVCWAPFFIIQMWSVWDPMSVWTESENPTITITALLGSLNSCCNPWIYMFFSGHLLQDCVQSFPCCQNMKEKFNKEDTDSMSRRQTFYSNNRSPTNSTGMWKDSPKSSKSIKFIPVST
# protocol: SAFETYscan calcium secondary messenger assay, AVPR1A
quantity: IC50

Incoming: Which IC50 value belongs to CN(C)CCc1c[nH]c2cccc(OC(=O)SCc3ccccc3)c12 [E(VI)] ?
Outgoing: > 10 µM
